Reference source for all entries: paper PMC8698454

Test system: Staphylococcus aureus ATCC 9144
Type: cell-based
Details: Table S3; technical replicate 3, biological replicate BR3
Where a SMILES comes first, the peptide text is derived from it. [ ]: non-standard residue; d: D form. Bip = N[C@@H](Cc1ccc(-c2ccccc2)cc1)C(=O)O; Lys(N3) = [N-]=[N+]=NCCCC[C@H](N)C(=O)O
Readout Type: MIC S. aureus ATCC 9144 (µg/mL)
Field: numeric (µg/mL). Do not append units.

Solved cases below.
{"columns": ["Compound", "MIC S. aureus ATCC 9144 / µg/mL"],
 "data": [
  ["[N-]=[N+]=NCCCC[C@@H]1NC(=O)[C@H](Cc2ccccc2)NC(=O)[C@H](CCCNC(=N)N)NC(=O)[C@H](Cc2ccc(-c3ccccc3)cc2)NC(=O)[C@H](Cc2ccc(-c3ccccc3)cc2)NC(=O)[C@H](CCCNC(=N)N)NC1=O [2d] (cyclo(R[Bip][Bip]RF[Lys(N3)]))", 4],
  ["[N-]=[N+]=NCCCC[C@H](NC(=O)[C@H](Cc1ccccc1)NC(=O)[C@H](CCCNC(=N)N)NC(=O)[C@H](Cc1c[nH]c2ccccc12)NC(=O)[C@H](Cc1c[nH]c2ccccc12)NC(=O)[C@@H](N)CCCNC(=N)N)C(N)=O [1c] (H-RWWRF[Lys(N3)]-NH2)", 32],
  ["[N-]=[N+]=NCCCC[C@@H]1NC(=O)[C@H](Cc2ccccc2)NC(=O)[C@H](CCCNC(=N)N)NC(=O)[C@H](Cc2c[nH]c3ccccc23)NC(=O)[C@H](Cc2c[nH]c3ccccc23)NC(=O)[C@H](CCCNC(=N)N)NC1=O [1d] (cyclo(RWWRF[Lys(N3)]))", 16]
]}

Qu. What value of MIC S. aureus ATCC 9144 on Staphylococcus aureus ATCC 9144 does [N-]=[N+]=NCCCC[C@H](NC(=O)[C@H](Cc1ccccc1)NC(=O)[C@H](CCCNC(=N)N)NC(=O)[C@H](Cc1ccc(-c2ccccc2)cc1)NC(=O)[C@H](Cc1ccc(-c2ccccc2)cc1)NC(=O)[C@@H](N)CCCNC(=N)N)C(N)=O [2c] (H-R[Bip][Bip]RF[Lys(N3)]-NH2) have?
Ans. 8

---

Parameter: MIC P. aeruginosa ATCC 27853. Scope: all listed entries.
System: Pseudomonas aeruginosa ATCC 27853
Format: cell-based
Details: Table S3; technical replicate 3, biological replicate BR3
Where a SMILES comes first, the peptide text is derived from it. [ ]: non-standard residue; d: D form. Bip = N[C@@H](Cc1ccc(-c2ccccc2)cc1)C(=O)O; Lys(N3) = [N-]=[N+]=NCCCC[C@H](N)C(=O)O
Field: numeric (µg/mL). Do not append units.

Solved cases below.
{"columns": ["Molecule", "Measurement Target", "Recorded Number"],
 "data": [
  ["[N-]=[N+]=NCCCC[C@@H]1NC(=O)[C@H](Cc2ccccc2)NC(=O)[C@H](CCCNC(=N)N)NC(=O)[C@H](Cc2c[nH]c3ccccc23)NC(=O)[C@H](Cc2c[nH]c3ccccc23)NC(=O)[C@H](CCCNC(=N)N)NC1=O [1d] (cyclo(RWWRF[Lys(N3)]))", "Pseudomonas aeruginosa ATCC 27853", 128],
  ["[N-]=[N+]=NCCCC[C@H](NC(=O)[C@H](Cc1ccccc1)NC(=O)[C@H](CCCNC(=N)N)NC(=O)[C@H](Cc1ccc(-c2ccccc2)cc1)NC(=O)[C@H](Cc1ccc(-c2ccccc2)cc1)NC(=O)[C@@H](N)CCCNC(=N)N)C(N)=O [2c] (H-R[Bip][Bip]RF[Lys(N3)]-NH2)", "Pseudomonas aeruginosa ATCC 27853", 16],
  ["[N-]=[N+]=NCCCC[C@@H]1NC(=O)[C@H](Cc2ccccc2)NC(=O)[C@H](CCCNC(=N)N)NC(=O)[C@H](Cc2ccc(-c3ccccc3)cc2)NC(=O)[C@H](Cc2ccc(-c3ccccc3)cc2)NC(=O)[C@H](CCCNC(=N)N)NC1=O [2d] (cyclo(R[Bip][Bip]RF[Lys(N3)]))", "Pseudomonas aeruginosa ATCC 27853", 256]
]}

Proceeding to the next molecule to report its MIC P. aeruginosa ATCC 27853.
Qu. What value of MIC P. aeruginosa ATCC 27853 on Pseudomonas aeruginosa ATCC 27853 does [N-]=[N+]=NCCCC[C@H](NC(=O)[C@H](Cc1ccccc1)NC(=O)[C@H](CCCNC(=N)N)NC(=O)[C@H](Cc1c[nH]c2ccccc12)NC(=O)[C@H](Cc1c[nH]c2ccccc12)NC(=O)[C@@H](N)CCCNC(=N)N)C(N)=O [1c] (H-RWWRF[Lys(N3)]-NH2) have?
Ans. 32

---

Test system: Escherichia coli ATCC 25922
Format: cell-based
Conditions: Table S3; technical replicate 1, biological replicate BR3
Where a SMILES comes first, the peptide text is derived from it. [ ]: non-standard residue; d: D form. Bip = N[C@@H](Cc1ccc(-c2ccccc2)cc1)C(=O)O; Lys(N3) = [N-]=[N+]=NCCCC[C@H](N)C(=O)O
Readout Type: MIC E. coli ATCC 25922 (µg/mL)
Field: numeric (µg/mL). Do not append units.

Solved cases below.
{"columns": ["Compound", "Measurement Target", "MIC E. coli ATCC 25922 (µg/mL)"],
 "data": [
  ["[N-]=[N+]=NCCCC[C@@H]1NC(=O)[C@H](Cc2ccccc2)NC(=O)[C@H](CCCNC(=N)N)NC(=O)[C@H](Cc2ccc(-c3ccccc3)cc2)NC(=O)[C@H](Cc2ccc(-c3ccccc3)cc2)NC(=O)[C@H](CCCNC(=N)N)NC1=O [2d] (cyclo(R[Bip][Bip]RF[Lys(N3)]))", "Escherichia coli ATCC 25922", 64],
  ["[N-]=[N+]=NCCCC[C@H](NC(=O)[C@H](Cc1ccccc1)NC(=O)[C@H](CCCNC(=N)N)NC(=O)[C@H](Cc1ccc(-c2ccccc2)cc1)NC(=O)[C@H](Cc1ccc(-c2ccccc2)cc1)NC(=O)[C@@H](N)CCCNC(=N)N)C(N)=O [2c] (H-R[Bip][Bip]RF[Lys(N3)]-NH2)", "Escherichia coli ATCC 25922", 16],
  ["[N-]=[N+]=NCCCC[C@H](NC(=O)[C@H](Cc1ccccc1)NC(=O)[C@H](CCCNC(=N)N)NC(=O)[C@H](Cc1c[nH]c2ccccc12)NC(=O)[C@H](Cc1c[nH]c2ccccc12)NC(=O)[C@@H](N)CCCNC(=N)N)C(N)=O [1c] (H-RWWRF[Lys(N3)]-NH2)", "Escherichia coli ATCC 25922", 32]
]}

Proceeding to the next compound to report its MIC E. coli ATCC 25922.
Qu. Record request: MIC E. coli ATCC 25922 value, item [N-]=[N+]=NCCCC[C@@H]1NC(=O)[C@H](Cc2ccccc2)NC(=O)[C@H](CCCNC(=N)N)NC(=O)[C@H](Cc2c[nH]c3ccccc23)NC(=O)[C@H](Cc2c[nH]c3ccccc23)NC(=O)[C@H](CCCNC(=N)N)NC1=O [1d] (cyclo(RWWRF[Lys(N3)]))
Ans. 64

---

System: Staphylococcus aureus ATCC 9144
Format: cell-based
Settings: Table S3; technical replicate 1, biological replicate BR3
Where a SMILES comes first, the peptide text is derived from it. [ ]: non-standard residue; d: D form. Bip = N[C@@H](Cc1ccc(-c2ccccc2)cc1)C(=O)O; Lys(N3) = [N-]=[N+]=NCCCC[C@H](N)C(=O)O
Parameter: MIC S. aureus ATCC 9144. Scope: all listed entries.
Field: numeric (µg/mL). Do not append units.

Solved cases below.
{"columns": ["Compound", "MIC S. aureus ATCC 9144 [µg/mL]"],
 "data": [
  ["[N-]=[N+]=NCCCC[C@@H]1NC(=O)[C@H](Cc2ccccc2)NC(=O)[C@H](CCCNC(=N)N)NC(=O)[C@H](Cc2ccc(-c3ccccc3)cc2)NC(=O)[C@H](Cc2ccc(-c3ccccc3)cc2)NC(=O)[C@H](CCCNC(=N)N)NC1=O [2d] (cyclo(R[Bip][Bip]RF[Lys(N3)]))", 4],
  ["[N-]=[N+]=NCCCC[C@H](NC(=O)[C@H](Cc1ccccc1)NC(=O)[C@H](CCCNC(=N)N)NC(=O)[C@H](Cc1ccc(-c2ccccc2)cc1)NC(=O)[C@H](Cc1ccc(-c2ccccc2)cc1)NC(=O)[C@@H](N)CCCNC(=N)N)C(N)=O [2c] (H-R[Bip][Bip]RF[Lys(N3)]-NH2)", 8],
  ["[N-]=[N+]=NCCCC[C@H](NC(=O)[C@H](Cc1ccccc1)NC(=O)[C@H](CCCNC(=N)N)NC(=O)[C@H](Cc1c[nH]c2ccccc12)NC(=O)[C@H](Cc1c[nH]c2ccccc12)NC(=O)[C@@H](N)CCCNC(=N)N)C(N)=O [1c] (H-RWWRF[Lys(N3)]-NH2)", 32]
]}

Proceeding to the next compound to report its MIC S. aureus ATCC 9144.
Qu. What value of MIC S. aureus ATCC 9144 on Staphylococcus aureus ATCC 9144 does [N-]=[N+]=NCCCC[C@@H]1NC(=O)[C@H](Cc2ccccc2)NC(=O)[C@H](CCCNC(=N)N)NC(=O)[C@H](Cc2c[nH]c3ccccc23)NC(=O)[C@H](Cc2c[nH]c3ccccc23)NC(=O)[C@H](CCCNC(=N)N)NC1=O [1d] (cyclo(RWWRF[Lys(N3)])) have?
Ans. 8
